System: cryopreserved human hepatocytes (primary culture)
test: Hepatocyte viability (MTT test) on suspended cryopreserved human hepatocytes
Format: cell-based
experimental.setup: 100 μM, 90 minutes incubation, relative to non treated cells, Table I campaign
Counter-ions that a name gives are not always drawn.
measure: Hepatocyte viability % (100 μM) (%)
One number for each entry, in %.

compound	measurement.units	Hepatocyte viability % (100 μM)
Cc1c(C)c2c(c(C)c1CCCCCCNC(=O)OC(C)(C)C)CCC(C)(COc1ccc(/C=C3\SC(=O)NC3=O)cc1)O2 (racemic) [C]	%	85
Cc1c(C)c2c(c(C)c1CCCCCCN)CCC(C)(COc1ccc(/C=C3\SC(=O)N(C)C3=O)cc1)O2 (racemic) [D, trifluoroacetate]	%	83
Cc1c(C)c2c(c(C)c1O)CCC(C)(COc1ccc(CC3SC(=O)NC3=O)cc1)O2 (stereo not drawn) [K, troglitazone, reference compound]	%	79
Cc1c(C)c2c(c(C)c1CCCCCCN)CCC(C)(COc1ccc(/C=C3\SC(=O)NC3=O)cc1)O2 (racemic) [E, trifluoroacetate]	%	83
O=C1S/C(=C\c2ccc(O)cc2)C(=O)N1C/C=C/c1ccccc1 [Compound A]	%	89

Lab note: next compound to report on.
Entry under test: CC1(CN2C(=O)S/C(=C\c3cc(Br)c(O)c(Br)c3)C2=O)CCCCC1 [L, reference compound] . Its Hepatocyte viability % (100 μM) was 42

Data origin: patent US9522909B2
